Reported pIC50 is given for each of the following compounds.
# experimental-system: Human Aryl Hydrocarbon Receptor (AhR) (Homo sapiens)
# Sequence (P35869 11-848): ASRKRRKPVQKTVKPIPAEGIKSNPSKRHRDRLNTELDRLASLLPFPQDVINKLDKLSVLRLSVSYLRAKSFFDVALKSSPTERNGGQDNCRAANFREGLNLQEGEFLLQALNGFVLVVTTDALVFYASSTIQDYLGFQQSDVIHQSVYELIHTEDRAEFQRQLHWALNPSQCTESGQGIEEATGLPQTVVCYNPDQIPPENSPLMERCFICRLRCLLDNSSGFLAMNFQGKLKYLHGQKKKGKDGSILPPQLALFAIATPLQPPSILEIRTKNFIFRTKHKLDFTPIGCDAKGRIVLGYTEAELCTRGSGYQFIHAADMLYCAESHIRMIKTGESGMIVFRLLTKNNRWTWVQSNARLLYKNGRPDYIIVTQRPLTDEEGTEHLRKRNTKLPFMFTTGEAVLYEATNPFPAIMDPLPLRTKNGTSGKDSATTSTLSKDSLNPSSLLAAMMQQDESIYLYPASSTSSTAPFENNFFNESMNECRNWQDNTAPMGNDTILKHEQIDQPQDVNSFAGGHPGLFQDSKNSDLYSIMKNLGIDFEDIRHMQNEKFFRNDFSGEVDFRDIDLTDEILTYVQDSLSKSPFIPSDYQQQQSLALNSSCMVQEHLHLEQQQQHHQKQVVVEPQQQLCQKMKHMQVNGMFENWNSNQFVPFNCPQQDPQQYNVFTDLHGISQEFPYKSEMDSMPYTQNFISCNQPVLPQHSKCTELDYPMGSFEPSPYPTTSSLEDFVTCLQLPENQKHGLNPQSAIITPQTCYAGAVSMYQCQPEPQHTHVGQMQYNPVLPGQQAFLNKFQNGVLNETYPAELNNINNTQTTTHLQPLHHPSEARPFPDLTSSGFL
# protocol-summary: AHR antagonist reporter assay in human cell line (INDIGO AhR Reporter Assay System, kynurenic acid activated)
# run-conditions: 200 μM kynurenic acid, 24 hours, luciferase; read-out: AhR Reporter Assay KA Antagonist Mode: IC50
pIC50: −log10 of the molar value.

compound	pIC50
COC[C@H](C)NC(=O)c1cc(-c2ccccc2F)nn(-c2cnn(C)c2)c1=O [Compound 108]	< 6.40
COC[C@H](C)NC(=O)c1cc(-c2ccc(F)cc2F)nn(-c2cnn(C)c2)c1=O [Compound 109]	< 6.40
COC[C@H](C)NC(=O)c1cc(-c2ccc3ncccc3c2)nn(-c2cnn(C)c2)c1=O [Compound 126]	< 6.40

[ask] Could you tell me which pIC50 is on file for CN1CCCC[C@H](NC(=O)c2cc(-c3ccc(C(F)(F)F)nc3)nn(-c3cnn(C)c3)c2=O)C1=O [Compound 172] ?
[reply] > 7.00

* * *

In this section, each of the compounds is paired with its reported pIC50.
# experimental-system: Human Aryl Hydrocarbon Receptor (AhR) (Homo sapiens, UniProt P35869)
# Sequence (P35869 11-848): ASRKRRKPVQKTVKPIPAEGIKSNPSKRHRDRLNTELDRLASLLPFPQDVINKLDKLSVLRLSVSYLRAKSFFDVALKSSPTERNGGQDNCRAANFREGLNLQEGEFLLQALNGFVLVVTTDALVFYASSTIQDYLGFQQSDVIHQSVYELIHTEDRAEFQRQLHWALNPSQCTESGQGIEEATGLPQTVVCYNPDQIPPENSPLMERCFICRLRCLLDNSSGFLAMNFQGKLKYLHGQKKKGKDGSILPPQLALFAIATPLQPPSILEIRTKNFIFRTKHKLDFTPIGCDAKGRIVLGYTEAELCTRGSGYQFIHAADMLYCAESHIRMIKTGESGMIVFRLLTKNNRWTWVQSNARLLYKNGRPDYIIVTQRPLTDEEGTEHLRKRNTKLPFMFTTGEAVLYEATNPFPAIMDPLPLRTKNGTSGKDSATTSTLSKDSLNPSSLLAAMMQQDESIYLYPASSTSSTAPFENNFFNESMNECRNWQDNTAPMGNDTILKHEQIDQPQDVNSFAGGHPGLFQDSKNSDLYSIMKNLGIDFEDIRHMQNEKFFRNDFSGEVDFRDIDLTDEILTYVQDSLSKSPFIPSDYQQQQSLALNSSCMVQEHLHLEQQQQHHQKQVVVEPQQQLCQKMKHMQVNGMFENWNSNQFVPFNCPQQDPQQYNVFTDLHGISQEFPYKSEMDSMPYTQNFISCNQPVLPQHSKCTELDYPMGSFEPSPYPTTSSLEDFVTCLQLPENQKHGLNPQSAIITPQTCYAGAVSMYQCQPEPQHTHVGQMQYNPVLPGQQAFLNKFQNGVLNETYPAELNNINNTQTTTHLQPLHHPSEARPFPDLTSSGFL
# protocol-summary: AHR antagonist reporter assay in human cell line (INDIGO AhR Reporter Assay System, kynurenic acid activated)
# run-conditions: 200 μM kynurenic acid, 24 hours, luciferase; read-out: AhR Reporter Assay KA Antagonist Mode: IC50
pIC50: −log10 of the molar value.

Check out these entries, answers already filled in.
compound	experimental-system	observed-measurement
C[C@@H](CO)NC(=O)c1cc(-c2cnc(-c3ccc(F)cc3)nc2)nc(-c2cnn(C)c2)n1	Human Aryl Hydrocarbon Receptor (AhR) (Homo sapiens, UniProt P35869)	> 7.00
O=C(N[C@H]1CCCCNC1=O)c1cc(-c2ccc(Cl)cc2)nn(-c2cccc(F)c2)c1=O	Human Aryl Hydrocarbon Receptor (AhR) (Homo sapiens, UniProt P35869)	> 7.00
COC[C@H](C)NC(=O)c1cc(-c2ccc(F)c(F)c2)nn(-c2cnn(C)c2)c1=O	Human Aryl Hydrocarbon Receptor (AhR) (Homo sapiens, UniProt P35869)	< 6.40

[ask] Look up pIC50 with Human Aryl Hydrocarbon Receptor (AhR) (Homo sapiens, UniProt P35869) for this compound: COC[C@H](C)NC(=O)c1cc(C2=CCC(C)CC2)nn(-c2cnn(C)c2)c1=O (stereo partly drawn)
[reply] > 7.00

[ask] What reported pIC50 corresponds to C[C@H](NC(=O)c1cc(-c2ccc(-c3ccc(Cl)cc3)cc2)nn(-c2cnn(C)c2)c1=O)C(=O)N(C)C on Human Aryl Hydrocarbon Receptor (AhR) (Homo sapiens, UniProt P35869)?
[reply] > 7.00

[ask] What reported pIC50 corresponds to COC[C@H](C)NC(=O)c1cc(-c2ccc3c(c2)N(C)CC3)nn(-c2cnn(C)c2)c1=O on Human Aryl Hydrocarbon Receptor (AhR) (Homo sapiens, UniProt P35869)?
[reply] < 6.40

[ask] Look up pIC50 with Human Aryl Hydrocarbon Receptor (AhR) (Homo sapiens, UniProt P35869) for this compound: CC(CN)NC(=O)c1cc(-c2ccc(Cl)cc2)nn(-c2cccc(F)c2)c1=O (stereo not drawn)
[reply] < 6.40
